system: HL-60(TB) leukemia; assay: NCI tumour cell line growth inhibition, 48 h
observation type: log10 of TGI (log10 of the value in µM)
// do not treat as linear: log10 of TGI, unit µM

Here are 4 compounds together with their reported answers.
Form field log10 of TGI, entry Cn1cc(C2=C(c3cn(CCCSC(=N)N)c4ccccc34)C(=O)NC2=O)c2ccccc21 : 0.33

Form field log10 of TGI, entry CC1SC(c2cccc(Oc3ccccc3)c2)N(CCc2cccs2)C1=O (stereo not given) : 0.82

Form field log10 of TGI, entry CCO/C=N/C1=C(C#N)C(c2ccc(OC)c(OC)c2)c2c(-c3ccccc3)nn(-c3ccccc3)c2O1 (stereo not given) : 0.95

Form field log10 of TGI, entry Cc1cc(N2CCOCC2)nc(N(CCNc2ccnc3cc(Cl)ccc23)Cc2cccs2)n1 : 0.58

Please go through the list and note log10 of TGI for each compound.
1. O=C(c1ccccc1)c1cc(-c2ccccc2)c(-c2ccccc2)[nH]c(=O)c1=O
2. COc1ccc(/C(C)=C(\c2ccc(Cl)cc2)c2ccc(OCCN3CCCCC3)cc2)cc1F
3. Nc1n[nH]c(=O)c2c1c(Br)cn2C1OC(CO)C(O)C1O (stereo not given)
4. COc1cc(C2C(C(=O)Nc3ccc(Cl)c(Cl)c3)=C(C)NC(C)=C2C(=O)Nc2ccc(Cl)c(Cl)c2)ccc1O
5. CN(C)CCCNc1ccc2nnn3c4ccc([N+](=O)[O-])cc4c(=O)c1c23
6. O=S(=O)(CC#CCS(=O)(=O)c1ccccc1)c1ccccc1

(A)
1: 1.61; 2: 0.83; 3: 0.01; 4: 1.37; 5: 1.05; 6: 1.21

---

test system: SK-MEL-5 melanoma; experiment: NCI tumour cell line growth inhibition, 48 h
Exercise: for every item that follows, state its recorded TGI.
Numbers only, in µM.

The molecule CCCCCCn1c(=N)n(CC(O)COc2cccc(C)c2)c2ccccc21 (centres undefined) , tested on SK-MEL-5 melanoma, showed TGI of 3.2

Please go through the list and note TGI for each molecule.
1. COc1ccc(N=Nc2ccc3oc(=O)c(C(=O)Nc4ccc(OC)cc4)cc3c2)cc1
2. COc1cc(NS(C)(=O)=O)ccc1N1Cc2cnc3ccc4[nH]ccc1c4c23

(A)
1: 33.3; 2: 75.8

Please go through the list and note TGI for each molecule.
1. CN(C)CCCN1c2ccc3ccccc3c2Sc2cccc(Cl)c21
2. Oc1ccc(-c2nc(-c3ccc4oc5ccc(-c6[nH]c(-c7ccc(O)cc7)nc6-c6ccccc6)cc5c4c3)c(-c3ccccc3)[nH]2)cc1

(A)
1. 9.59
2. 75.5

---

tested on: OVCAR-8 ovarian; experiment: NCI tumour cell line growth inhibition, 48 h
Exercise: for every item that follows, state its recorded TGI.

Here are 3 compounds together with their reported answers.
Form field TGI, entry C[N+](C)(C)CC(=O)N/N=C(\C(=O)Nc1ccc(Cl)cc1)C1C(=O)N(c2ccccc2)N=C1N (configuration not stated) : > 100 µM

Form field TGI, entry O=C(Nc1cccc(Cl)c1)c1cc2cc(N=Nc3ccc(Br)cc3)ccc2oc1=O : > 100 µM

Form field TGI, entry CC(C)CCC[C@@H](C)[C@H]1CC[C@H]2[C@@H]3CC=C4CC(OCCCCN(O)CCCSC5OC(CO)C(O)C(O)C5O)CC[C@]4(C)[C@H]3CC[C@]12C (some centres not stated) : > 100 µM

Please go through the list and note TGI for each compound.
1. NCCN.O=N[O-].O=N[O-].O=N[O-].O=N[O-].[Co+3].[K+]
2. C[N+]12C=CC=C1C(N1CCCC1)c1sc(-c3ccc(Cl)cc3)cc12 (configuration not stated)
3. Cc1ccc(S(=O)(=O)NC(CCCCN)C(=O)CCl)cc1 (configuration not stated)
4. COc1ccc(C2Oc3cc(OC)c(O)cc3[C@@H]2C)cc1 (some centres not stated)
5. c1ccc(C2(c3cc4ccccc4[nH]3)OCCO2)cc1

(A)
["> 100 µM", "33.5 µM", "> 100 µM", "56.6 µM", "> 100 µM"]

---

system: LOX IMVI melanoma; test: NCI tumour cell line growth inhibition, 48 h
Exercise: for every item that follows, state its recorded TGI.

Form field TGI, entry N#Cc1ccccc1C#C/C=C\C#Cc1cnccn1 : > 60.9 µM

Form field TGI, entry O=C(CN1C(=O)c2ccccc2C1=O)NC1(C(=O)O)CCCC1 : > 100 µM

Form field TGI, entry COc1cccc(C(=O)C(O)c2cccc(OC)c2OC)c1OC (centres undefined) : > 100 µM

Please go through the list and note TGI for each compound.
1. COC(=O)c1cc2c([nH]c3ccccc32)c(-c2nc3cc(N(S(=O)(=O)c4ccc(C)cc4)S(=O)(=O)c4ccc(C)cc4)c(OC)cc3cc2CO)n1
2. COc1cc(OC)c(-c2oc3ccccc3c(=O)c2O)c(OC)c1

(A)
["> 100 µM", "> 100 µM"]

Please go through the list and note TGI for each compound.
1. CN1CCN(c2nc3c(c(=O)n(C)c(=O)n3C)n2C)CC1
2. O=C1[C@@H]2C3C=CC([C@H]4C(=O)N(CO)C(=O)[C@@H]34)[C@@H]2C(=O)N1CO
3. CC(C)(O)C1CC(=O)C(C)(C2C(O)CC3(C)C4CC=C5C(CCC(O)C5(C)C)C4(C)C(=O)CC23C)O1 (centres undefined)
4. O=C1OC2C(O)COC2(OCc2c[nH]c3ccccc23)C1O (centres undefined) (tested in a mixture with another compound)

(A)
1. > 100 µM
2. > 61 µM
3. > 100 µM
4. > 100 µM

---

tested on: HCT-116 colon; test: NCI tumour cell line growth inhibition, 48 h
observation type: GI50

Here are 4 molecules together with their reported answers.
The molecule COc1ccc(C2CC(c3ccc(OC)c(OC)c3)=NN2C(=O)c2cc(OC)c(OC)c(OC)c2)cc1 (stereo not given) , tested on HCT-116 colon, showed GI50 of 2230 nM

The molecule CCS(=O)(=O)Nc1ccc(Oc2ccc(F)cc2F)c(-c2cn(C)c(=O)c3[nH]ccc23)c1 , tested on HCT-116 colon, showed GI50 of 32.1 nM

The molecule COc1cc2c(cc1Nc1nc(Nc3ccsc3C(N)=O)c3cc[nH]c3n1)N(C(=O)CN(C)C)CCC2 , tested on HCT-116 colon, showed GI50 of 458 nM

The molecule COc1c(C)cnc(Cn2cnc3c(Cl)nc(N)nc32)c1C , tested on HCT-116 colon, showed GI50 of 120 nM

Could you now consider this next molecule?
The molecule CNCc1ccc(C)c(NC(=O)c2ccc(Nc3nc(-c4ccccc4)c4ccccc4n3)cc2)c1 , tested on HCT-116 colon, showed GI50 of 1680 nM

---

tested on: UACC-62 melanoma; assay: NCI tumour cell line growth inhibition, 48 h; in the data active = GI50 below about 0.43 µM; inactive = the rest
Your reply should match one of these outcome classes. T for active, F for inactive

(Q) // outcome(item) with item = Cc1cccc(NC(=O)c2sc3nc4c(cc3c2N)CCC4)c1C
(A) T

(Q) // outcome(item) with item = Cc1cc(N2CCOCC2)nc(N(CCNc2ccnc3cc(Cl)ccc23)Cc2cccs2)n1
(A) F

(Q) // outcome(item) with item = CC1SC(c2cccc(Oc3ccccc3)c2)N(CCc2cccs2)C1=O (stereo unspecified)
(A) F

(Q) // outcome(item) with item = N#Cc1c(-c2ccc(Cl)cc2)n([O-])c2ccccc2[n+]1=O
(A) F

(Q) // outcome(item) with item = N#Cc1ccccc1C#C/C=C\C#Cc1cnccn1
(A) F

(Q) // outcome(item) with item = Cn1c([N+](=O)[O-])cnc1/C=C1\Oc2ccc(Cl)cc2C1=O
(A) F

(Q) // outcome(item) with item = COc1c(C)cnc(Cn2cnc3c(Cl)nc(N)nc32)c1C
(A) T

(Q) // outcome(item) with item = Nc1cc(N)c2nc(-c3ccccc3)c(Sc3ccc(F)cc3)nc2c1
(A) F

(Q) // outcome(item) with item = Cn1cnc2nc(Cl)nc(Cl)c21
(A) F

(Q) // outcome(item) with item = Cc1ccc(S(=O)(=O)NC(CCCCN)C(=O)CCl)cc1 (stereo unspecified)
(A) F

Proceed to the following item.
(Q) // outcome(item) with item = COc1ccc(C2CC(c3cccc(Nc4ccnc5cc(Cl)ccc45)c3)=NN2c2ccc(Cl)cc2)cc1 (stereo unspecified)
(A) F

---

system: IGROV1 ovarian; assay: NCI tumour cell line growth inhibition, 48 h
Exercise: for every item that follows, state its recorded GI50.

Here are 2 compounds together with their reported answers.
Form field GI50, entry O=C(CCc1nnc2s/c(=C\c3ccc(Cl)cc3Cl)c(=O)n12)Nc1cc(Cl)c(Cl)cc1Cl : > 100 µM

Form field GI50, entry N#Cc1c(-c2ccc(Cl)cc2)n([O-])c2ccccc2[n+]1=O : 2.89 µM

Please go through the list and note GI50 for each compound.
1. COc1ccc(C(=O)CC(Cl)=C(Cl)Cl)cc1
2. CN(C)c1ccc(/C=C/C(=O)c2ccc(Nc3nc(Nc4ccc(F)cc4)nc(Nc4ccc(Cl)cc4)n3)cc2)cc1
3. Nc1cc(N)c2nc(-c3ccccc3)c(Sc3ccc(F)cc3)nc2c1
4. Cn1c([N+](=O)[O-])cnc1/C=C1\Oc2ccc(Cl)cc2C1=O
5. COC(=O)c1cc2c([nH]c3ccccc32)c(-c2nc3cc(N(S(=O)(=O)c4ccc(C)cc4)S(=O)(=O)c4ccc(C)cc4)c(OC)cc3cc2CO)n1
6. Cc1ccc(S(=O)(=O)NC(CCCCN)C(=O)CCl)cc1 (centres undefined)

(A)
1: 28.3 µM; 2: 3.02 µM; 3: 25 µM; 4: 1.22 µM; 5: > 100 µM; 6: > 100 µM

Form field GI50, entry CC1SC(c2cccc(Oc3ccccc3)c2)N(CCc2cccs2)C1=O (centres undefined) : 1.07 µM
